assay: yeast display, Sf9 membrane polyspecificity reagent, FACS + sequencing; frameworks hold sequencing errors
MEASURE_NAME: polyreactivity (PSR sort gate)

QVQLVESGGGLVQAGGSLRLSCAASGFIFPYYAMGWYRQAPGQERELVAAITGGGSRTYYADSVKGRFTISRDNAKNTVYLQMNSLKPEDTAVYYCAKGLSTGRAYRGYDYWGQGTQVTVSS	high polyreactivity
QVQLVESGGGLVQAGGSLRLSCAASGRPFGRYAMGWYRPAPGKERELVAAITGSGGSTYYADSVKGRYTMSRDNAKNTVYLQMNSLKPEDTAVYYCAAPQRYYYTAMGYWGQGTQVTVSS	high polyreactivity

###

assay: yeast display, Sf9 membrane polyspecificity reagent, FACS + sequencing; frameworks hold sequencing errors
MEASURE_NAME: polyreactivity (PSR sort gate)

QVQLVESGGGLVQAGGSLRLSCAASGLIFSRYTMGWNRQAPGKERELVAAISRSGTNTYYADSVKGRFTISRDNAKNTVYLQMNSLKPEDTAVYYCAARGYYRDYDSWGQGTQVTVSS	high polyreactivity
QVQLVESGGGLVQAGGSLRLSCAASGSIFPHNAMGWYRQAPGKERELVAAISTSGGRTYYADSVKGRFTISRDNAKNTVYLQMNSLKPVDTAVYYCNARSVRSRYDYWGQGTQVTVSS	high polyreactivity

###

assay: yeast display, Sf9 membrane polyspecificity reagent, FACS + sequencing; frameworks hold sequencing errors
MEASURE_NAME: polyreactivity (PSR sort gate)

Below, each entry is followed by its recorded polyreactivity (PSR sort gate) result.
QVQLVESGGGLVQAGGSLRLSCAASGFTIYSYAMGWYRQAPGKERELVAAISSGGSTYYADSVKGRFTISRDNAKNTVYLQMNSLKPEDTAVYYCARRYQVVWYYKYDYWGQGTQVTVSS	high polyreactivity
QVQLVESGGGLVQAGGSLRLICAASASIFQPYAMGWYRQAPGKERELVAAISKSGGNTYYADSVKGRFSSSRDYAKNTVYLQMNRLKPEVSAVYYCAALDYWGQGTQVTLSS	low polyreactivity
QVQLVESGGGLVQAGGSLRLSCAASGSTYRYYAMGWYRQAHGKERELVAAINSSCGSTYYADSVKGRFTISRDNAKNTVYLQMNSLKPEDTAVYYCATVYAYTGWLTNPREYSRYDYWGQGTQVTVSS	low polyreactivity
QVQLVESGGGLVQAGGSLRLSCAASGRIFGYAMGWYRQAPGKERELVAAITSSGGRTYYADSVKGRFTISRDNAKNTVYLQMNSLKPEDTAVYYCAAEYLAVSGYWYDYWGQGTQVTVSS	high polyreactivity
QVQLVESGGGLVQAGGSLRLSCAASGYIFGIYAMGWYRQAPGKERELVAAISTSGGSKYYADSVKGRFTISRDTAKNTVYLQMNSLKPEDTAVYYCAASRPSPRPRYGYWGQGTQVTVSS	high polyreactivity
QVQLVESGGGLVQAGGSLRLSCAASGRTFSQYDMGWYRQAPGKERELVAAISWSGGRTYYADSVKGRFTISRDNAKNTVYLQMNSLKPEDTAVYYCAAAYSWIRSPYNDPNRGYDYWGQGTQVTVSS	low polyreactivity

[ask] Record request: polyreactivity (PSR sort gate) value, item `QVQLVESGGGLVQAGGSLRLSCAASGRIFAYYAMGWYRQAPGKERELVATISVTGGSTYYADSVKGRFTISRDNAKNTVYLQMNSLKPEDTAVYYCNVDPGTYWPYSGEDYWGQGTQVTVSS`
[reply] low polyreactivity

[ask] Record request: polyreactivity (PSR sort gate) value, item `QVQLVESGGGLVQAGGSLRLSCAASGSIFRIYAMGWYRQAPGKERELVAAITGRGGSTYYADSVKGRFTISRDNAKNTVYLQMNSLKPEDTAVYYCAAEERYAYRYDYWGQGTQVTVSS`
[reply] high polyreactivity

[ask] Record request: polyreactivity (PSR sort gate) value, item `QVQLVESGGGLVQAGGSLRLSCAASGSTVVYYAMGWYRQAPGKERELVAAISSSGGTTYYADSVKGRFTISRDNAKNRVYLQMKSLKPEDTAVYYCAAPYASRGNEYWGQGTQVTVSS`
[reply] high polyreactivity

[ask] Record request: polyreactivity (PSR sort gate) value, item `QVQLVESGGGLVQAGGSLRLSCAASGIFFNYMGWYRQAPGKEREFVAAIDYRGGNTFYADSVKGRFTISRDNAKNTVYLQMNSLKPEDTAVYYCARAFGQRRYDYWGQGTQVTVSS`
[reply] high polyreactivity

[ask] Record request: polyreactivity (PSR sort gate) value, item `QVQLVESGRGLVQAGGSLRLSCAASGFTFRTYAMGWYRQSPGKERELDAAITRNGGTYYADSVKGRFTISRDNAKITVYLPMNSLKPEDTARYYCATDPAYWGDLPPEDDYWGQGTQVTVSS`
[reply] low polyreactivity

[ask] Record request: polyreactivity (PSR sort gate) value, item `QVQLVESGGGLVQAGGSLRLSCAASGSIFSYYAMGWSSQAPGKERELVAAISKRGASTYYADSVKGRFSISRDIAKNTVYLQMNSLKPEDTAVYYCAAYRQGSAYDYWGKGTQVTVSS`
[reply] high polyreactivity

[ask] Record request: polyreactivity (PSR sort gate) value, item `QVQLVESGGGLVQAGGSLRLSCAASSIFPSNAMGLYRPAPGKERELVAAISSGGSTNYADSVKGRFTISRDNAKNTVYLQMNSLKPEDTAVYYCAAVRYYRRRTGSYYHYDYWGQGTQVTVSS`
[reply] low polyreactivity

[ask] Record request: polyreactivity (PSR sort gate) value, item `QVQLGESGGGLVQAGGSLRLRCAASGSTFEFYAMGWYRQAPGKERELVASITSSSGPTYYADSVKGRFTISRDNAKNTVYLQMNSLKPEDTAVFYCAKRPIRYYHLLRGNYWGQGTQVTVSS`
[reply] low polyreactivity
